Values compiled from PubChem BioAssay AID2060512.

Measured viability, T/C values are reported for all entries that follow.
System: 186277-243-T-J2-PDC complex spheroid viability
procedure_text: Anticancer human tumor 186277-243-T-J2-PDC patient-derived colon adenocarcinoma cell line growth inhibition [GQUAD]
test_settings: second compound 1 µM; first compound 0.316 µM; hits give low values

compound	measurement_target	viability, T/C [%]
Cc1[nH]c2ccccc2c1CCNCc1ccc(/C=C/C(=O)NO)cc1 + Cc1[nH]c2ccc(F)cc2c1-c1nc2c3cccnc3c3ncccc3c2[nH]1	186277-243-T-J2-PDC complex spheroid viability	0.96
COc1cccc2c1C(=O)c1c(O)c3c(c(O)c1C2=O)CC(O)(C(=O)CO)CC3OC1CC(N)C(O)C(C)O1 (stereo not given) + Cc1cnc(CNC(=O)c2c(=O)c3ccc(N4CCCN(C)CC4)nc3n3c2sc2ccccc23)cn1	186277-243-T-J2-PDC complex spheroid viability	46.5
CC(=O)O[C@H]1C(=O)[C@@]2(C)[C@H]([C@H](OC(=O)c3ccccc3)[C@]3(O)C[C@H](OC(=O)[C@H](O)[C@@H](NC(=O)c4ccccc4)c4ccccc4)C(C)=C1C3(C)C)[C@]1(OC(C)=O)CO[C@@H]1C[C@@H]2O + Cc1cnc(CNC(=O)c2c(=O)c3ccc(N4CCCN(C)CC4)nc3n3c2sc2ccccc23)cn1	186277-243-T-J2-PDC complex spheroid viability	23.1
C#Cc1c(F)ccc2cc(O)cc(-c3ncc4c(N5CC6CCC(C5)N6)nc(OCC56CCCN5CC(F)C6)nc4c3F)c12 (stereo not given) + Cc1cnc(CNC(=O)c2c(=O)c3ccc(N4CCCN(C)CC4)nc3n3c2sc2ccccc23)cn1	186277-243-T-J2-PDC complex spheroid viability	6.74
Nc1ccn(C2OC(CO)C(O)C2(F)F)c(=O)n1 (stereo not given) + Cc1[nH]c2ccc(F)cc2c1-c1nc2c3cccnc3c3ncccc3c2[nH]1	186277-243-T-J2-PDC complex spheroid viability	11.8
CC(=O)O[C@H]1C(=O)[C@@]2(C)[C@H]([C@H](OC(=O)c3ccccc3)[C@]3(O)C[C@H](OC(=O)[C@H](O)[C@@H](NC(=O)c4ccccc4)c4ccccc4)C(C)=C1C3(C)C)[C@]1(OC(C)=O)CO[C@@H]1C[C@@H]2O + CN(C)c1ccc(Nc2c3ccc(NC(=O)CCN4CCCC4)cc3nc3cc(NC(=O)CCN4CCCC4)ccc23)cc1	186277-243-T-J2-PDC complex spheroid viability	5.59
O=c1[nH]cc(F)c(=O)[nH]1 + Cc1cnc(CNC(=O)c2c(=O)c3ccc(N4CCCN(C)CC4)nc3n3c2sc2ccccc23)cn1	186277-243-T-J2-PDC complex spheroid viability	50.7
CC1COCCN1c1cc(C2(O)CC3CCC(C2)O3)c2cnn(-c3ccn[nH]3)c2n1 (stereo not given) + Cc1[nH]c2ccc(F)cc2c1-c1nc2c3cccnc3c3ncccc3c2[nH]1	186277-243-T-J2-PDC complex spheroid viability	6.11
C=CC(=O)N1CCN(c2nc(=O)n(-c3c(C)ccnc3C(C)C)c3nc(-c4c(O)cccc4F)c(F)cc23)C(C)C1 (stereo not given) + CN(C)c1ccc(Nc2c3ccc(NC(=O)CCN4CCCC4)cc3nc3cc(NC(=O)CCN4CCCC4)ccc23)cc1	186277-243-T-J2-PDC complex spheroid viability	88.4
CC[C@@]1(O)C(=O)OCc2c1cc1n(c2=O)Cc2cc3c(CN(C)C)c(O)ccc3nc2-1 + Cc1[nH]c2ccc(F)cc2c1-c1nc2c3cccnc3c3ncccc3c2[nH]1	186277-243-T-J2-PDC complex spheroid viability	55.7
O=C(NO)c1cnc(N2CCN(S(=O)(=O)c3ccc4ccccc4c3)CC2)nc1 + CN(C)c1ccc(Nc2c3ccc(NC(=O)CCN4CCCC4)cc3nc3cc(NC(=O)CCN4CCCC4)ccc23)cc1	186277-243-T-J2-PDC complex spheroid viability	7.85
COc1ncnc(C2CC2)c1-c1ncc2cnn(Cc3ccc(-c4nc(C(F)(F)F)cn4C(C)C)cc3)c2n1 + Cc1[nH]c2ccc(F)cc2c1-c1nc2c3cccnc3c3ncccc3c2[nH]1	186277-243-T-J2-PDC complex spheroid viability	107
Cc1[nH]c2ccccc2c1CCNCc1ccc(/C=C/C(=O)NO)cc1 + Cc1cnc(CNC(=O)c2c(=O)c3ccc(N4CCCN(C)CC4)nc3n3c2sc2ccccc23)cn1	186277-243-T-J2-PDC complex spheroid viability	0.08
Cn1ncnc1[C@H]1c2n[nH]c(=O)c3cc(F)cc(c23)N[C@@H]1c1ccc(F)cc1 + CN(C)c1ccc(Nc2c3ccc(NC(=O)CCN4CCCC4)cc3nc3cc(NC(=O)CCN4CCCC4)ccc23)cc1	186277-243-T-J2-PDC complex spheroid viability	85
Nc1ccn(C2OC(CO)C(O)C2(F)F)c(=O)n1 (stereo not given) + CN(C)c1ccc(Nc2c3ccc(NC(=O)CCN4CCCC4)cc3nc3cc(NC(=O)CCN4CCCC4)ccc23)cc1	186277-243-T-J2-PDC complex spheroid viability	6.7
CC1COCCN1c1cc(C2(S(C)(=N)=O)CC2)nc(-c2ccnc3[nH]ccc23)n1 (stereo not given) + Cc1[nH]c2ccc(F)cc2c1-c1nc2c3cccnc3c3ncccc3c2[nH]1	186277-243-T-J2-PDC complex spheroid viability	101
COc1ccc([C@@H](O)c2cc(-c3ncnc4cc(N5CCOCC5)ccc34)c(F)cc2Cl)nn1 + Cc1[nH]c2ccc(F)cc2c1-c1nc2c3cccnc3c3ncccc3c2[nH]1	186277-243-T-J2-PDC complex spheroid viability	115
COc1cc(C2c3cc4c(cc3C(OC3OC5COC(C)OC5C(O)C3O)C3COC(=O)C23)OCO4)cc(OC)c1O (stereo not given) + Cc1cnc(CNC(=O)c2c(=O)c3ccc(N4CCCN(C)CC4)nc3n3c2sc2ccccc23)cn1	186277-243-T-J2-PDC complex spheroid viability	57.5
C#Cc1c(F)ccc2cc(O)cc(-c3ncc4c(N5CC6CCC(C5)N6)nc(OCC56CCCN5CC(F)C6)nc4c3F)c12 (stereo not given) + Cc1[nH]c2ccc(F)cc2c1-c1nc2c3cccnc3c3ncccc3c2[nH]1	186277-243-T-J2-PDC complex spheroid viability	17.7
C=CCn1c(=O)c2cnc(Nc3ccc(N4CCN(C)CC4)cc3)nc2n1-c1cccc(C(C)(C)O)n1 + CN(C)c1ccc(Nc2c3ccc(NC(=O)CCN4CCCC4)cc3nc3cc(NC(=O)CCN4CCCC4)ccc23)cc1	186277-243-T-J2-PDC complex spheroid viability	13

---

System: 186277-243-T-J2-PDC complex spheroid viability
procedure_text: Anticancer human tumor 186277-243-T-J2-PDC cell line growth inhibition [GQUAD]; active = viability on the fitted dose curve at most 10% of control; inactive = the rest;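 further: spheroids exposed to drugs for 7 days; 100% = DMSO vehicle control viability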
test_settings: second compound 1 µM; first compound 1 µM
Outcomes: active, inactive

compound	measurement_target	class_name
CC(=O)O[C@H]1C(=O)[C@@]2(C)[C@H]([C@H](OC(=O)c3ccccc3)[C@]3(O)C[C@H](OC(=O)[C@H](O)[C@@H](NC(=O)c4ccccc4)c4ccccc4)C(C)=C1C3(C)C)[C@]1(OC(C)=O)CO[C@@H]1C[C@@H]2O + Cc1[nH]c2ccc(F)cc2c1-c1nc2c3cccnc3c3ncccc3c2[nH]1	186277-243-T-J2-PDC complex spheroid viability	active
CC1COCCN1c1cc(-c2ccnn2C)c2ccnc(-c3ccn[nH]3)c2n1 (stereo not given) + Cc1[nH]c2ccc(F)cc2c1-c1nc2c3cccnc3c3ncccc3c2[nH]1	186277-243-T-J2-PDC complex spheroid viability	active
COc1ncnc(C2CC2)c1-c1ncc2cnn(Cc3ccc(-c4nc(C(F)(F)F)cn4C(C)C)cc3)c2n1 + Cc1[nH]c2ccc(F)cc2c1-c1nc2c3cccnc3c3ncccc3c2[nH]1	186277-243-T-J2-PDC complex spheroid viability	inactive
C=CC(=O)N1CCN(c2nc(=O)n(-c3c(C)ccnc3C(C)C)c3nc(-c4c(O)cccc4F)c(F)cc23)C(C)C1 (stereo not given) + Cc1cnc(CNC(=O)c2c(=O)c3ccc(N4CCCN(C)CC4)nc3n3c2sc2ccccc23)cn1	186277-243-T-J2-PDC complex spheroid viability	inactive
CC1COCCN1c1cc(-c2ccnn2C)c2ccnc(-c3ccn[nH]3)c2n1 (stereo not given) + CN(C)c1ccc(Nc2c3ccc(NC(=O)CCN4CCCC4)cc3nc3cc(NC(=O)CCN4CCCC4)ccc23)cc1	186277-243-T-J2-PDC complex spheroid viability	active
CCCS(=O)(=O)Nc1ccc(F)c(C(=O)c2c[nH]c3ncc(-c4ccc(Cl)cc4)cc23)c1F + CN(C)c1ccc(Nc2c3ccc(NC(=O)CCN4CCCC4)cc3nc3cc(NC(=O)CCN4CCCC4)ccc23)cc1	186277-243-T-J2-PDC complex spheroid viability	inactive
CC1COCCN1c1cc(C2(S(C)(=N)=O)CC2)nc(-c2ccnc3[nH]ccc23)n1 (stereo not given) + CN(C)c1ccc(Nc2c3ccc(NC(=O)CCN4CCCC4)cc3nc3cc(NC(=O)CCN4CCCC4)ccc23)cc1	186277-243-T-J2-PDC complex spheroid viability	inactive
O=C(c1cc(Cc2n[nH]c(=O)c3ccccc23)ccc1F)N1CCN(C(=O)C2CC2)CC1 + Cc1cnc(CNC(=O)c2c(=O)c3ccc(N4CCCN(C)CC4)nc3n3c2sc2ccccc23)cn1	186277-243-T-J2-PDC complex spheroid viability	inactive
COc1cccc2c1C(=O)c1c(O)c3c(c(O)c1C2=O)CC(O)(C(=O)CO)CC3OC1CC(N)C(O)C(C)O1 (stereo not given) + CN(C)c1ccc(Nc2c3ccc(NC(=O)CCN4CCCC4)cc3nc3cc(NC(=O)CCN4CCCC4)ccc23)cc1	186277-243-T-J2-PDC complex spheroid viability	inactive
Cc1cccc(N(C)C(=O)C2C(O)CCN2c2nc(C)cc(C(F)(F)F)c2C#N)c1 (stereo not given) + Cc1[nH]c2ccc(F)cc2c1-c1nc2c3cccnc3c3ncccc3c2[nH]1	186277-243-T-J2-PDC complex spheroid viability	inactive
CCCS(=O)(=O)Nc1ccc(F)c(C(=O)c2c[nH]c3ncc(-c4ccc(Cl)cc4)cc23)c1F + Cc1[nH]c2ccc(F)cc2c1-c1nc2c3cccnc3c3ncccc3c2[nH]1	186277-243-T-J2-PDC complex spheroid viability	inactive
C#Cc1c(F)ccc2cc(O)cc(-c3ncc4c(N5CC6CCC(C5)N6)nc(OCC56CCCN5CC(F)C6)nc4c3F)c12 (stereo not given) + Cc1[nH]c2ccc(F)cc2c1-c1nc2c3cccnc3c3ncccc3c2[nH]1	186277-243-T-J2-PDC complex spheroid viability	active
Cc1cccc(N(C)C(=O)C2C(O)CCN2c2nc(C)cc(C(F)(F)F)c2C#N)c1 (stereo not given) + Cc1cnc(CNC(=O)c2c(=O)c3ccc(N4CCCN(C)CC4)nc3n3c2sc2ccccc23)cn1	186277-243-T-J2-PDC complex spheroid viability	inactive
C#Cc1c(F)ccc2cc(O)cc(-c3ncc4c(N5CC6CCC(C5)N6)nc(OCC56CCCN5CC(F)C6)nc4c3F)c12 (stereo not given) + CN(C)c1ccc(Nc2c3ccc(NC(=O)CCN4CCCC4)cc3nc3cc(NC(=O)CCN4CCCC4)ccc23)cc1	186277-243-T-J2-PDC complex spheroid viability	inactive
O=C(NO)c1cnc(N2CCN(S(=O)(=O)c3ccc4ccccc4c3)CC2)nc1 + Cc1[nH]c2ccc(F)cc2c1-c1nc2c3cccnc3c3ncccc3c2[nH]1	186277-243-T-J2-PDC complex spheroid viability	active
